target.or.system: hERG (potassium voltage-gated channel subfamily H member 2) (Homo sapiens, UniProt Q12809)
Construct: expressed in transfected cells; host or cells: HEK-293
Sequence (Q12809 whole entry): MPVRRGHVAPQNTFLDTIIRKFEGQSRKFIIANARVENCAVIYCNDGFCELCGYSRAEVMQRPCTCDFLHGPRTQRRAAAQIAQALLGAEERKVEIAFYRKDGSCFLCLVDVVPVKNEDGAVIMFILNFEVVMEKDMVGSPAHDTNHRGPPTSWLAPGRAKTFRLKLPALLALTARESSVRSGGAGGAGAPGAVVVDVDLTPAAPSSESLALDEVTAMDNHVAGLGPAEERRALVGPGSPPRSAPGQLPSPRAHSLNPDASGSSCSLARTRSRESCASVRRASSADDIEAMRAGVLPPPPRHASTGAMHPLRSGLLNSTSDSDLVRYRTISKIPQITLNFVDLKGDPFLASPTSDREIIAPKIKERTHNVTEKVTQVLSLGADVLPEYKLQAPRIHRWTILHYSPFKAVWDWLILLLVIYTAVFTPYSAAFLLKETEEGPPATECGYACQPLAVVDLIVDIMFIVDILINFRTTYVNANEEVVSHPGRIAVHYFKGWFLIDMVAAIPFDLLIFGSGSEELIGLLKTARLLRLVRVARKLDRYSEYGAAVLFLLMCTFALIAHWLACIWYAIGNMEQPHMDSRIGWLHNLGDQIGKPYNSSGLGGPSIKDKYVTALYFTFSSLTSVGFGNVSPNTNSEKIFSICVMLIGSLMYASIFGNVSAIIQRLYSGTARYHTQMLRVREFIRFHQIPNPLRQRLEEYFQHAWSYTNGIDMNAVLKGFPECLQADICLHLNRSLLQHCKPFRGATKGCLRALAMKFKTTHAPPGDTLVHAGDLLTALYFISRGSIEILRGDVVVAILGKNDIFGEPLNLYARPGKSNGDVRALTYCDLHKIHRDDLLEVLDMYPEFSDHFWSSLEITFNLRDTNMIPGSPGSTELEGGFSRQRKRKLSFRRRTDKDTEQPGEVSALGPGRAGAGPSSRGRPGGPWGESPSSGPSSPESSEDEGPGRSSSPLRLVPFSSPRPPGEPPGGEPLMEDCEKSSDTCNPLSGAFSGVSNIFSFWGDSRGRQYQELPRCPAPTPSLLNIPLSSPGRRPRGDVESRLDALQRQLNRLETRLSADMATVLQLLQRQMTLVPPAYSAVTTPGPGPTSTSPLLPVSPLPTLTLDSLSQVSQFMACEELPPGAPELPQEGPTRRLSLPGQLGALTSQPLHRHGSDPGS
experiment.description: hERG channel binding assay ([3H] Dofetilide)
cond: human, HEK-293 cells (hERG channel binding assay), probe [3H] Dofetilide; 10 μM, [3H] Dofetilide, HEK-293 cells, 2 repetitions; read-out: hERG inhibition (% inhibition of the binding of a ligand specific for the target)
experimental.readout: inhibition at 10 µM

Asked: // lookup inhibition at 10 µM for COc1cc2c(cc1N1CC(N(C)C)C1)C[C@H]1C3CCCC[C@@]23CCN1C (stereo partly shown) [Compound 35]
Given back: < 15%
